System: Mycobacterium tuberculosis Erdman (autoluminescent)
Test: AUC25, normalised area under dose response up to IC25 (fraction (0-1)); higher = more potent at low dose
Conditions: in vitro model: cholesterol 0.05 mM; time point: constant (~7 days, model-specific)
Item-by-item account of AUC25
Recorded Metric: AUC25

1) COc1nc2ccc(Br)cc2cc1[C@@H](c1ccccc1)[C@@](O)(CCN(C)C)c1cccc2ccccc12 : 0.0895
2) CO[C@H]1/C=C/O[C@@]2(C)Oc3c(C)c(O)c4c(O)c(c(/C=N/N5CCN(C6CCCC6)CC5)c(O)c4c3C2=O)NC(=O)/C(C)=C\C=C\[C@H](C)[C@H](O)[C@@H](C)[C@@H](O)[C@@H](C)[C@H](OC(C)=O)[C@@H]1C : 0.104
3) CO[C@H]1/C=C/O[C@@]2(C)Oc3c(C)c(O)c4c(O)c(c(/C=N/N5CCN(C)CC5)c(O)c4c3C2=O)NC(=O)/C(C)=C\C=C\[C@H](C)[C@H](O)[C@@H](C)[C@@H](O)[C@@H](C)[C@H](OC(C)=O)[C@@H]1C : 0.093
4) COc1c(N2C[C@@H]3CCCN[C@@H]3C2)c(F)cc2c(=O)c(C(=O)O)cn(C3CC3)c12 : 0.116

###

Item-by-item account of AUC25
Tested on: Mycobacterium tuberculosis Erdman (autoluminescent)
Experiment: AUC25, normalised area under dose response up to IC25 (three-drug combination) (fraction (0-1)); higher = more potent at low dose
Conditions: in vitro model: cholesterol-high 0.2 mM; time point: constant (~7 days, model-specific)
Recorded Metric: AUC25

1) COc1nc2ccc(Br)cc2cc1[C@@H](c1ccccc1)[C@@](O)(CCN(C)C)c1cccc2ccccc12 [bedaquiline] + CC[C@@H](CO)NCCN[C@@H](CC)CO [ethambutol] + CC(=O)NC[C@H]1CN(c2ccc(N3CCOCC3)c(F)c2)C(=O)O1 [linezolid] : 0.0976
2) NNC(=O)c1ccncc1 [isoniazid] + O=[N+]([O-])c1cn2c(n1)OC[C@@H](OCc1ccc(OC(F)(F)F)cc1)C2 [pretomanid] + CO[C@H]1/C=C/O[C@@]2(C)Oc3c(C)c(O)c4c(O)c(c(/C=N/N5CCN(C6CCCC6)CC5)c(O)c4c3C2=O)NC(=O)/C(C)=C\C=C\[C@H](C)[C@H](O)[C@@H](C)[C@@H](O)[C@@H](C)[C@H](OC(C)=O)[C@@H]1C [rifapentine] : 0.0548
3) CC[C@@H](CO)NCCN[C@@H](CC)CO [ethambutol] + COc1c(N2C[C@@H]3CCCN[C@@H]3C2)c(F)cc2c(=O)c(C(=O)O)cn(C3CC3)c12 [moxifloxacin] + CO[C@H]1/C=C/O[C@@]2(C)Oc3c(C)c(O)c4c(O)c(c(/C=N/N5CCN(C)CC5)c(O)c4c3C2=O)NC(=O)/C(C)=C\C=C\[C@H](C)[C@H](O)[C@@H](C)[C@@H](O)[C@@H](C)[C@H](OC(C)=O)[C@@H]1C [rifampicin] : 0.0425
4) CC(C)/N=c1\cc2n(-c3ccc(Cl)cc3)c3ccccc3nc-2cc1Nc1ccc(Cl)cc1 [clofazimine] + COc1c(N2C[C@@H]3CCCN[C@@H]3C2)c(F)cc2c(=O)c(C(=O)O)cn(C3CC3)c12 [moxifloxacin] + CO[C@H]1/C=C/O[C@@]2(C)Oc3c(C)c(O)c4c(O)c(c(/C=N/N5CCN(C6CCCC6)CC5)c(O)c4c3C2=O)NC(=O)/C(C)=C\C=C\[C@H](C)[C@H](O)[C@@H](C)[C@@H](O)[C@@H](C)[C@H](OC(C)=O)[C@@H]1C [rifapentine] : 0.122
5) COc1nc2ccc(Br)cc2cc1[C@@H](c1ccccc1)[C@@](O)(CCN(C)C)c1cccc2ccccc12 [bedaquiline] + O=[N+]([O-])c1cn2c(n1)OC[C@@H](OCc1ccc(OC(F)(F)F)cc1)C2 [pretomanid] + CO[C@H]1/C=C/O[C@@]2(C)Oc3c(C)c(O)c4c(O)c(c(/C=N/N5CCN(C6CCCC6)CC5)c(O)c4c3C2=O)NC(=O)/C(C)=C\C=C\[C@H](C)[C@H](O)[C@@H](C)[C@@H](O)[C@@H](C)[C@H](OC(C)=O)[C@@H]1C [rifapentine] : 0.0733

// provenance: the supplement of paper PMC8617591
